- ASSAY_INFO: Metabolic stability in mouse skin homogenate assessed as compound remaining at 10 uM measured after 1 hrs by LC-MS analysis
- Assay type: ADME, tissue-based, Skin of body
- ASSAY_SETUP: tissue homogenate
Stability listing for selected compounds.
REPORTED_PROPERTY: Stability

1) C=C(CC(=O)OC)C(=O)OCCCOCCCCCCCCCCCCCCCC :: 67%
2) C=C(CC(=O)OCOC(=O)C(C)(C)C)C(=O)OCOC(=O)C(C)(C)C :: 0%
3) C=C(CC(=O)OC)C(=O)OCOC(=O)OC(C)C :: 0%
4) C=C(CC(=O)OCCCOCCCCCCCCCCCCCCCC)C(=O)OC :: 61%
5) C=C(CC(=O)OCOC(=O)C(C)(C)C)C(=O)OC :: 0%
6) C=C(CC(=O)OCCCOCCCCCCCCCCCCCCCC)C(=O)O :: 100%
